Test: small-molecule binders of probe aNOTCH3, primary screen, biochemical, small-molecule microarray, 635/667 nm fluorescence (AID 1120);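 also: probe is a biotin-tagged antibody raised against NOTCH3 rather than NOTCH3 protein; score merges spot fluorescence near 667 nm with spot signal to noise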
Settings: higher = more signal
Entries are sorted into classes by composite z-score as follows: small value: < -0.1; mid value: ≥ -0.1 and < 0.1; large value: ≥ 0.1

Class for CN1C(=O)C2C=CC(C(O)Cc3ccccc3)N(N(c3ccccc3)c3ccccc3)C2C1=O (centres undefined) ?
large value

Class for `C=C(C(=O)CC[C@H](OC(C)=O)c1cccc(OCCO)c1)C(C)C` ?
small value

Class for CCOC(=CC(=O)OC)CC(O)c1cccc(Cl)c1 (centres undefined) ?
small value

Class for `COCCOC(=O)N1C(=O)[C@@]2(c3cc(C#CC4(O)CCCCCC4)ccc31)[C@H](C(N)=O)[C@H]1C(=O)O[C@H](c3ccccc3)[C@H](c3ccccc3)N1[C@@H]2c1ccccc1OCCO` ?
small value

Class for `CCCc1cccc(=O)o1` ?
mid value

Class for COc1ccc(C(O)C2C=CC3C(=O)N(C)C(=O)C3N2N2CCCCC2)cc1 (centres undefined) ?
large value

Class for `Cc1ccc(S[C@]2(C(=O)O)CC(=O)N(Cc3ccccc3Cl)[C@@H]2c2ccc(CO)cc2)cc1` ?
small value

Class for `COC(=O)[C@]1(CCS(=O)(=O)c2ccccc2)N=C(c2ccc(OCCCO)cc2)O[C@@H]1c1ccccc1CN=[N+]=[N-]` ?
mid value

Class for `CC(=O)N1Cc2ccccc2C[C@]2(N=C(c3ccc(OCCCO)cc3)O[C@@H]2c2ccccc2)C1=O` ?
mid value

Class for O=C1OC[C@@H](c2ccccc2)N2CC(/C=C/c3ccccc3)=CC12 (some centres undefined) ?
small value

Class for `COCCOC(=O)N1C(=O)[C@@]2(c3cc(C#CC4=CCCCC4)ccc31)[C@H](C(=O)N1CCN(c3ncccn3)CC1)[C@H]1C(=O)O[C@H](c3ccccc3)[C@H](c3ccccc3)N1[C@@H]2c1ccc(O)cc1` ?
mid value

Class for `CC(C)(C)OC(=O)CC[C@]1(C(=O)NCCN2CCOCC2)N=C(c2ccc(OCCCO)cc2)O[C@H]1c1ccccc1` ?
mid value

Class for `O=C1O[C@@H](c2ccccc2)[C@@H](c2ccccc2)N2[C@@H](c3ccc(O)cc3)[C@]3(C(=O)Nc4ccc(C#CC5=CCCCC5)cc43)[C@@H](C(=O)N3CCN(c4ncccn4)CC3)[C@H]12` ?
mid value

Class for `CC(C)NC(=O)[C@@]1(C)c2ccccc2C(=O)N(C(C)C)[C@H]1c1ccc(CO)cc1` ?
small value

Class for `C=C(/C(=C/C[C@@H](OC(=O)c1ccncc1)c1ccc(OCCO)cc1)c1cc(C(=O)OC)ccc1OC)C(C)C` ?
large value

Class for `Cc1ccc(S[C@]2(C(=O)NCCN3CCOCC3)CC(=O)N(Cc3ccccc3C(F)(F)F)[C@@H]2c2ccc(CO)cc2I)cc1` ?
small value

Class for CN1C(=O)C2C(C1=O)C1C=C(c3ccc(CO)cc3)C2C(c2cccs2)N1Cc1cccc(OC(F)(F)F)c1 (centres undefined) ?
mid value

Class for `COC(=O)[C@@]1(Cc2ccccc2)[C@H]2c3cc(C(=O)N4CCCC4)n(C[C@H](O)CO)c3C[C@H]2CN1C(=O)c1ccccc1` ?
large value

Class for `CC(C)C[C@@H]1NC(=O)[C@H]2C[C@@H](C(=O)NCCCCCC[N+](C)(C)C)[C@@H](c3cccc(OCCO)c3)N2C1=O` ?
mid value

Class for CC(CO)N1C(=O)[C@@H]2C3C(=O)OCCC/C=C\[C@H]3OC23C=CCN(Cn2nnc4ccccc42)C(=O)[C@@H]13 (some centres undefined) ?
small value

Class for `O=C1c2ccccc2[C@](Cc2ccccc2I)(C(=O)NCc2ccccc2)[C@H](c2ccc(CO)cc2)N1C1CCCCC1` ?
large value

Class for `C=C(CCCC)C(=O)CC[C@@H](OC(=O)c1ccccc1-c1ccccc1C(=O)O)c1cccc(OCCO)c1` ?
small value

Class for `COCCOC(=O)N1C(=O)[C@@]2(c3cc(C#CC4=CCCCC4)ccc31)[C@H](c1ccc(O)cc1)N1[C@H](c3ccccc3)[C@H](c3ccccc3)OC(=O)[C@H]1[C@@H]2C(=O)Nc1nc2ccccc2s1` ?
large value

Class for `COC(=O)[C@@]1(Cc2ccc(OC)cc2)[C@H]2c3cc(C(=O)N(C)C)n(Cc4ccccc4)c3C[C@H]2CN1C(=O)c1ccccc1` ?
mid value

Class for `C=CCOC(=O)[C@@H]1[C@H]2C(=O)O[C@H](c3ccccc3)[C@H](c3ccccc3)N2[C@H](c2ccc(OCCOC(=O)[C@H]3C[C@H]4C(=O)N[C@@H](CCCC[N+](C)(C)C)C(=O)N4[C@H]3c3ccc(O)cc3)cc2)[C@@]12C(=O)Nc1ccc(I)cc12` ?
large value

Class for CC(C)c1ccc(NN2C(C(O)c3ccco3)C=CC3C(=O)N(c4ccccc4)C(=O)C32)cc1 (centres undefined) ?
large value

----------
Experiment: adipocyte viability effects, profiling panel, cell-based, 3T3-L1 adipocytes, calcein-AM fluorescence, 48 h, basal (AID 1163); also: test concentration not given here
Settings: 3T3-L1 adipocytes viability, higher = more signal
READOUT_LABEL: z-score

Specify measured z-score for `C=CCOC(=O)[C@@H]1[C@H]2C(=O)O[C@H](c3ccccc3)[C@H](c3ccccc3)N2[C@H](c2ccc(OCCOC(=O)[C@H]3C[C@H]4C(=O)N[C@@H](CCCCN(C)C)C(=O)N4[C@H]3c3cccc(OCCO)c3)cc2)[C@@]12C(=O)Nc1ccc(I)cc12` .
-0.859

Specify measured z-score for `O=C1NCC(=O)N2[C@@H]1C[C@@H](C(=O)O)[C@H]2c1ccc(O)cc1` .
-0.0074

Specify measured z-score for `CCOC(=O)C[C@H]1[C@H](OC(=O)Cc2ccc3c(c2)OCO3)[C@@H](NC(=O)C2CCCCC2)c2cc(OCCCO)ccc2N1C(=O)c1ccc2ccccc2n1` .
1.72

Specify measured z-score for `CCOC(=O)C1=CC[C@@H](c2ccccc2C(F)(F)F)N(S(=O)(=O)c2ccc(C)cc2)C1` .
0.605

Specify measured z-score for `CC(C)C(=C=CC[C@@H](O)c1ccccc1OCCO)C[C@@H](O)COCc1ccccc1` .
0.435

Specify measured z-score for `COc1cc2c(cc1OC)CN(C(=O)[C@H]1[C@@H]3C(=O)O[C@@H](c4ccccc4)[C@@H](c4ccccc4)N3[C@@H](c3ccc(OCCO)cc3)[C@]13C(=O)Nc1ccc(C#CC4(O)CCCCCC4)cc13)CC2` .
0.0483

Specify measured z-score for `Cc1ccc(S[C@]2(C(=O)O)CC(=O)N(Cc3ccccc3Cl)[C@@H]2c2ccc(CO)cc2)cc1` .
0.152

Specify measured z-score for `CCOC(=O)C[C@H]1[C@H](OC(=O)c2ccc(-c3ccccc3)cc2)[C@@H](NC(=O)C2CCCCC2)c2cc(OCCCO)ccc2N1C(=O)c1ccccc1` .
0.557

Specify measured z-score for `O=C1O[C@@H](c2ccccc2)[C@@H](c2ccccc2)N2[C@@H](c3ccccc3OCCO)[C@]3(C(=O)Nc4ccc(C#CCCO)cc43)[C@@H](C(=O)N3CCN(c4ncccn4)CC3)[C@H]12` .
0.986

Specify measured z-score for COc1ccc(C(O)C2C=CC3C(=O)N(c4ccccc4)C(=O)C3N2Nc2ccccc2)cc1OCc1ccccc1 (stereo not given) .
-1.4

Specify measured z-score for `COCCCNC(=O)[C@@H]1c2ccccc2C(=O)N(Cc2ccccc2C(F)(F)F)[C@H]1c1ccc(CO)cc1` .
1.29

Specify measured z-score for `C=CC[C@]12N=C(c3ccc(OCCCO)cc3)O[C@H]1c1ccccc1N(C)C2=O` .
0.614

Specify measured z-score for `C[N+](C)(C)CCCC[C@@H]1NC(=O)[C@@H]2C[C@H](C(=O)O)[C@H](c3ccc(O)cc3)N2C1=O` .
0.422

Specify measured z-score for `COC(=O)[C@@]1(Cc2ccccc2)[C@H]2c3cc(C(=O)N4CCCC4)n(Cc4ccsc4Br)c3C[C@H]2CN1C(=O)c1ccccc1` .
0.213

Specify measured z-score for `C=C(/C=C/CNS(=O)(=O)c1ccc(C)cc1)[C@H](O)[C@H]1CCCN1S(=O)(=O)c1ccccc1[N+](=O)[O-]` .
0.581

----------
Target: Focal adhesion kinase 1 (Homo sapiens)
Assay: small-molecule microarray binders of FAK, primary screen, biochemical, 635/667 nm fluorescence, BSA, DTT (AID 1130);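 also: composite of spot emission at 667 nm and signal to noise over triplicate slides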
Conditions: PTK2 binding, 635 nm fluorescence, higher = more signal
READOUT_LABEL: composite z-score
Form rule: numeric answer, no unit written next to it.

Specify measured composite z-score for CC(=O)n1cc(C(O)C2C=CC3C(=O)N(Cc4ccccc4)C(=O)C3N2n2cnnc2)c2ccccc21 (stereo not drawn) .
0.418

Specify measured composite z-score for `O=C1O[C@H](c2ccccc2)[C@H](c2ccccc2)N2[C@H]1[C@@H](C(=O)O)[C@]1(C(=O)Nc3ccccc31)[C@H]2c1ccc(O)cc1` .
0.133

Specify measured composite z-score for `C=CCNC(=O)[C@H]1[C@@H]2C(=O)O[C@@H](c3ccccc3)[C@@H](c3ccccc3)N2[C@@H](c2ccccc2OCCO)[C@]12C(=O)N(C(=O)OCCOC)c1ccc(C#CC3=CCCCC3)cc12` .
0.369
